Provenance of the data: ChEMBL document CHEMBL4270590

Would you mind telling me the reported fold change (FC) of each entry?
Target: Orexin/Hypocretin receptor type 1 (Homo sapiens)
Experiment: Allosteric agonist activity at human OX1 receptor expressed in CHOK1 cells assessed as potentiation of orexin-A induced calcium accumulation at 10 uM preincubated for 30 mins followed by orexin-A addition and measured for 150 secs by calcium-4 dye based FLIPR assay relative to control
Type: functional, cell-based
Give only the figure.

Which fold change (FC) is listed for `O=C(O)Cc1ccc2ccc(C(=O)c3ccc(C(F)(F)F)cc3)c-2cc1` ?
1.5

Which fold change (FC) is listed for `COC(=O)c1ccc2c(I)cc(C(=O)c3ccccc3)c-2cc1` ?
1.99

Which fold change (FC) is listed for `COC(=O)Cc1ccc2ccc(C(=O)c3ccccc3)c-2cc1` ?
1.86

Which fold change (FC) is listed for `COC(=O)Cc1ccc2c(C(=O)c3ccccc3)cc(C(=O)c3ccccc3)c-2cc1` ?
1.68

Which fold change (FC) is listed for `O=C(O)c1ccc2c(C(=O)c3ccccc3)cc(C(=O)c3ccccc3)c-2cc1` ?
1.42

Which fold change (FC) is listed for `COC(=O)c1ccc2ccc(C(=O)c3ccccc3)c-2cc1` ?
1.64

Which fold change (FC) is listed for `CCOc1ccc(-c2cc(C(=O)c3ccccc3)c3ccc(C(=O)O)ccc2-3)cc1` ?
1.01

Which fold change (FC) is listed for `O=C(O)c1ccc2ccc(C(=O)c3ccc(C(F)(F)F)cc3)c-2cc1` ?
1.53

Which fold change (FC) is listed for `COC(=O)c1ccc2ccc(C(=O)c3ccc(C(F)(F)F)cc3)c-2cc1` ?
1.59

Which fold change (FC) is listed for `O=C(O)c1ccc2ccc(C(=O)c3ccccc3)c-2cc1` ?
1.52

Which fold change (FC) is listed for `COC(=O)Cc1ccc2ccc(C(=O)c3ccc(C(F)(F)F)cc3)c-2cc1` ?
2.03

Which fold change (FC) is listed for `COC(=O)c1ccc2c(C(=O)c3ccccc3)cc(C(=O)c3ccccc3)c-2cc1` ?
1.97

* * *

Biological target: Orexin receptor type 2 (Homo sapiens)
Assay: Displacement of [125I]-orexin-A from human OX2 receptor expressed in CHOK1 cells at 10 uM incubated for 10 mins and measured after 90 mins by liquid scintillation counting method relative to control
Assay type: cell-based
readout: inhibition (%)
Please respond with the number in % and leave the unit unwritten.

Which inhibition is listed for `O=Cc1ccc2ccc(C(=O)O)ccc1-2` ?
44.1

Which inhibition is listed for `COC(=O)c1cccc2c(C(=O)c3ccccc3)cc(C(=O)c3ccc(C(Cl)(Cl)Cl)cc3)c-2c1` ?
27

Which inhibition is listed for `COC(=O)c1cccc2c(C(=O)c3ccccc3)cc(C(=O)c3ccc(C(F)(F)F)cc3)c-2c1` ?
27

Which inhibition is listed for `COC(=O)c1cc(C=O)c2ccc(/C=C/c3cnc[nH]3)ccc1-2` ?
39.9

Which inhibition is listed for `COC(=O)Cc1ccc2ccc(C(=O)c3ccccc3)c-2cc1` ?
-4.3

Which inhibition is listed for `O=Cc1cc(-c2ccccc2)c2ccc(C(=O)O)ccc1-2` ?
21.5

* * *

Biological target: Orexin/Hypocretin receptor type 1 (Homo sapiens) (UniProt O43613)
Sequence (O43613 whole entry): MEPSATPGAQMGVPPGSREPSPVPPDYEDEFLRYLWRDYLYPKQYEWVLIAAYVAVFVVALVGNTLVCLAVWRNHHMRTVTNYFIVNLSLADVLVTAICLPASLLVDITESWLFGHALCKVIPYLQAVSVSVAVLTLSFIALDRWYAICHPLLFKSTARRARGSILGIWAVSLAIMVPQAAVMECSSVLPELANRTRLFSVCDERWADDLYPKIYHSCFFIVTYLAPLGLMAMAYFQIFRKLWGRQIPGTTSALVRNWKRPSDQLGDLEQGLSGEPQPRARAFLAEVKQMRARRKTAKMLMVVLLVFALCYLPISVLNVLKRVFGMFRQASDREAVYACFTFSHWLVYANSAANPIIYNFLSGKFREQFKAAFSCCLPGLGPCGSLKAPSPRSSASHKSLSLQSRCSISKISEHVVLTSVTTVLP
Test: Agonist activity at human OX1 receptor expressed in CHOK1 cells assessed as increase in calcium accumulation at 10 uM incubated for 30 mins measured for 150 secs by calcium-4 dye based FLIPR assay relative to orexin-A
Type: functional, cell-based
readout: Emax

API: value(readout=Emax, system=Orexin/Hypocretin receptor type 1 (Homo sapiens) (UniProt O43613)) for record `Cc1ccc2ccc(C(=O)c3ccc(C(F)(F)F)cc3)c-2cc1`
0.61%

API: value(readout=Emax, system=Orexin/Hypocretin receptor type 1 (Homo sapiens) (UniProt O43613)) for record `NC(=O)c1ccc2c(C=O)cc(-c3ccccc3)c-2cc1`
0.64%

API: value(readout=Emax, system=Orexin/Hypocretin receptor type 1 (Homo sapiens) (UniProt O43613)) for record `COC(=O)Cc1ccc2ccc(C(=O)c3ccccc3)c-2cc1`
5.01%

API: value(readout=Emax, system=Orexin/Hypocretin receptor type 1 (Homo sapiens) (UniProt O43613)) for record `COC(=O)c1ccc2c(C(=O)c3ccccc3)cc(C(=O)c3ccccc3)c-2cc1`
-0.56%

API: value(readout=Emax, system=Orexin/Hypocretin receptor type 1 (Homo sapiens) (UniProt O43613)) for record `O=C(O)c1ccc2c(C(=O)c3ccccc3)cc(C(=O)c3ccccc3)c-2cc1`
-1.39%

API: value(readout=Emax, system=Orexin/Hypocretin receptor type 1 (Homo sapiens) (UniProt O43613)) for record `O=Cc1cc(-c2ccccc2)c2ccc(C(=O)O)ccc1-2`
0.8%

API: value(readout=Emax, system=Orexin/Hypocretin receptor type 1 (Homo sapiens) (UniProt O43613)) for record `COC(=O)c1ccc2c(C=O)cc(-c3ccccc3)c-2cc1`
0.8%

API: value(readout=Emax, system=Orexin/Hypocretin receptor type 1 (Homo sapiens) (UniProt O43613)) for record `COC(=O)c1ccc2ccc(C(=O)c3ccccc3)c-2cc1`
4.15%

API: value(readout=Emax, system=Orexin/Hypocretin receptor type 1 (Homo sapiens) (UniProt O43613)) for record `O=Cc1ccc2ccc(C(=O)O)ccc1-2`
1.75%

API: value(readout=Emax, system=Orexin/Hypocretin receptor type 1 (Homo sapiens) (UniProt O43613)) for record `COC(=O)Cc1ccc2c(C(=O)c3ccccc3)cc(C(=O)c3ccccc3)c-2cc1`
0.28%

API: value(readout=Emax, system=Orexin/Hypocretin receptor type 1 (Homo sapiens) (UniProt O43613)) for record `COC(=O)CCC(=O)Oc1ccc2ccc(Cl)ccc1-2`
0.73%

API: value(readout=Emax, system=Orexin/Hypocretin receptor type 1 (Homo sapiens) (UniProt O43613)) for record `COC(=O)c1ccc2ccc(C(=O)c3ccc(C(F)(F)F)cc3)c-2cc1`
6.13%

API: value(readout=Emax, system=Orexin/Hypocretin receptor type 1 (Homo sapiens) (UniProt O43613)) for record `O=C(O)Cc1ccc2ccc(C(=O)c3ccc(C(F)(F)F)cc3)c-2cc1`
0.22%

API: value(readout=Emax, system=Orexin/Hypocretin receptor type 1 (Homo sapiens) (UniProt O43613)) for record `CCOc1ccc(-c2cc(C(=O)c3ccccc3)c3ccc(C(=O)OC)ccc2-3)cc1`
1.49%

API: value(readout=Emax, system=Orexin/Hypocretin receptor type 1 (Homo sapiens) (UniProt O43613)) for record `COC(=O)c1cccc2c(C(=O)c3ccccc3)cc(C(=O)c3ccc(C(F)(F)F)cc3)c-2c1`
0.69%

API: value(readout=Emax, system=Orexin/Hypocretin receptor type 1 (Homo sapiens) (UniProt O43613)) for record `O=C(OCc1ccccc1)Oc1ccc2ccc(Cl)ccc1-2`
0.46%

API: value(readout=Emax, system=Orexin/Hypocretin receptor type 1 (Homo sapiens) (UniProt O43613)) for record `O=C(O)c1ccc2ccc(C(=O)c3ccccc3)c-2cc1`
2.16%

API: value(readout=Emax, system=Orexin/Hypocretin receptor type 1 (Homo sapiens) (UniProt O43613)) for record `COC(=O)c1cccc2c(C=O)cc(I)c-2c1`
1.59%

API: value(readout=Emax, system=Orexin/Hypocretin receptor type 1 (Homo sapiens) (UniProt O43613)) for record `O=C(O)c1ccc2ccc(C(=O)c3ccc(C(F)(F)F)cc3)c-2cc1`
1.09%

API: value(readout=Emax, system=Orexin/Hypocretin receptor type 1 (Homo sapiens) (UniProt O43613)) for record `NC(=O)c1ccc2ccc(C(=O)c3ccccc3)c-2cc1`
0.42%

API: value(readout=Emax, system=Orexin/Hypocretin receptor type 1 (Homo sapiens) (UniProt O43613)) for record `O=C(O)c1cccc2c(C(=O)c3ccccc3)cc(C(=O)c3ccc(C(F)(F)F)cc3)c-2c1`
-1.38%

API: value(readout=Emax, system=Orexin/Hypocretin receptor type 1 (Homo sapiens) (UniProt O43613)) for record `O=C(O)c1cccc2c(C(=O)c3ccccc3)cc(C(=O)c3ccc(C(Cl)(Cl)Cl)cc3)c-2c1`
-1.38%

* * *

Biological target: Orexin receptor type 2 (Homo sapiens)
Experiment: Allosteric agonist activity at human OX2 receptor expressed in CHOK1 cells assessed as potentiation of orexin-A induced calcium accumulation at 10 uM preincubated for 30 mins followed by orexin-A addition and measured for 150 secs by calcium-4 dye based FLIPR assay relative to control
Assay type: functional, cell-based
Answer False if fold change (FC) is under 1, and True if it is 1 or more.

Evaluate `COC(=O)Cc1ccc2ccc(C(=O)c3ccccc3)c-2cc1` : fold change (FC) at minimum 1?
False

Evaluate `O=C(O)c1ccc2ccc(C(=O)c3ccc(C(F)(F)F)cc3)c-2cc1` : fold change (FC) at minimum 1?
False

Evaluate `COC(=O)c1ccc2ccc(C(=O)c3ccccc3)c-2cc1` : fold change (FC) at minimum 1?
False

Evaluate `COC(=O)c1ccc2c(C(=O)c3ccccc3)cc(C(=O)c3ccccc3)c-2cc1` : fold change (FC) at minimum 1?
False

Evaluate `COC(=O)Cc1ccc2ccc(C(=O)c3ccc(C(F)(F)F)cc3)c-2cc1` : fold change (FC) at minimum 1?
True

Evaluate `O=C(O)c1ccc2c(C(=O)c3ccccc3)cc(C(=O)c3ccccc3)c-2cc1` : fold change (FC) at minimum 1?
False

Evaluate `COC(=O)c1ccc2ccc(C(=O)c3ccc(C(F)(F)F)cc3)c-2cc1` : fold change (FC) at minimum 1?
False

Evaluate `CCOc1ccc(-c2cc(C(=O)c3ccccc3)c3ccc(C(=O)O)ccc2-3)cc1` : fold change (FC) at minimum 1?
False

Evaluate `COC(=O)Cc1ccc2c(C(=O)c3ccccc3)cc(C(=O)c3ccccc3)c-2cc1` : fold change (FC) at minimum 1?
True
